# surface tension liquid-gas values compiled below
Details: 313.15 K, Pendant drop shape
Numbers after ± are expanded uncertainties.

// below: answered compounds
-- ask Given CC(=O)OCC(C)C [2-methylpropyl ethanoate] , respond with its surface tension liquid-gas.
-- reply 21.64 ± 0.33 mN/m

-- ask Identify measured surface tension liquid-gas associated with CC(=O)OC(C)C [1-methylethyl ethanoate]
-- reply 20.29 ± 0.24 mN/m

-- ask Respond only with surface tension liquid-gas recorded for Cc1cc(C)cc(C)c1
-- reply 26.78 ± 0.3 mN/m

Lab note: next compound to report on.
-- ask Entry Cc1ccc(C)c(C)c1 needs its surface tension liquid-gas filled in; supply it.
-- reply 27.71 ± 0.31 mN/m

----------
# reported mass density; entries follow
Conditions: 298.15 K; 101 kPa; Liquid
± gives the expanded uncertainty stated by the source.
Report as: number unit

Previously resolved entries follow.
-- ask Report mass density, nothing else, for this compound: Cc1cc(C)cc(C)c1
-- reply 861.12 ± 0.41 kg/m3

-- ask Item CC(=O)OCC(C)C [2-methylpropyl ethanoate] : provide mass density
-- reply 866.06 ± 1.2 kg/m3

-- ask Identify mass density associated with the compound Cc1ccc(C)c(C)c1
-- reply 871.71 ± 0.54 kg/m3

# input for lookup
-- ask Return mass density (reported value) for this compound: CC(=O)OC(C)C [1-methylethyl ethanoate]
-- reply 866.25 ± 0.44 kg/m3

----------
Settings: 308.15 K; 101 kPa; Liquid
observable: mass density (kg/m3)
The reply should be a number in kg/m3, with the unit left off.

-- ask Name the recorded mass density of the item Cc1cc(C)cc(C)c1 in your answer.
-- reply 852.94

-- ask Specify reported mass density for the compound shown: CC(=O)OCC(C)C [2-methylpropyl ethanoate]
-- reply 855.51

-- ask Provide only the value of recorded mass density for CC(=O)OC(C)C [1-methylethyl ethanoate]
-- reply 854.54

-- ask Report mass density, nothing else, for this compound: Cc1ccc(C)c(C)c1
-- reply 863.68

----------
Details: 313.15 K; 101 kPa; Liquid
observable: mass density (kg/m3)
Quick note: give the figure in kg/m3, leave out the unit.

Worked cases, answers included:
-- ask Quote mass density reported for Cc1ccc(C)c(C)c1 please.
-- reply 859.58

-- ask Please list mass density recorded for the compound CC(=O)OC(C)C [1-methylethyl ethanoate]
-- reply 848.61

-- ask Answer with the recorded mass density for the compound listed here: CC(=O)OCC(C)C [2-methylpropyl ethanoate]
-- reply 850.16

Let us examine a further case.
-- ask Report mass density, nothing else, for this compound: Cc1cc(C)cc(C)c1
-- reply 848.82

----------
List of surface tension liquid-gas values.
Conditions: 298.15 K, Pendant drop shape
Hi! Could you send only the number? It should be in mN/m, unit omitted.

-- ask Answer with the recorded surface tension liquid-gas of Cc1ccc(C)c(C)c1 [1,2,4-trimethylbenzene] only.
-- reply 29.3

-- ask Recall and state the measured surface tension liquid-gas for CC(=O)OC(C)C [1-methylethyl ethanoate] .
-- reply 21.89

-- ask Give the reported surface tension liquid-gas for this compound. CC(=O)OCC(C)C [2-methylpropyl ethanoate]
-- reply 23.15

// moving on: another record for surface tension liquid-gas
-- ask Respond only with surface tension liquid-gas recorded for Cc1cc(C)cc(C)c1 [1,3,5-trimethylbenzene]
-- reply 28.05

----------
Conditions: 308.15 K, Pendant drop shape
observable: surface tension liquid-gas (mN/m)
Please state the figure in mN/m; there is no need to write the unit.

Recorded results for 3 compounds are shown here.
-- ask Provide surface tension liquid-gas value for the following compound: CC(=O)OCC(C)C [2-methylpropyl ethanoate]
-- reply 22.16

-- ask Let me know recorded surface tension liquid-gas for CC(=O)OC(C)C [1-methylethyl ethanoate] , thanks.
-- reply 20.81

-- ask Provide surface tension liquid-gas value for the following compound: Cc1cc(C)cc(C)c1
-- reply 27.21

Shift focus to the following entry.
-- ask Tell me measured surface tension liquid-gas for Cc1ccc(C)c(C)c1 please.
-- reply 28.24

This collection of values is drawn from the NIST ThermoML archive (doi:10.1021/je800046k).
